- EXPERIMENT: Pharmacokinetic studies, first set (LC-MS, blood and brain)
- CONDITION_CONTEXT: mouse, serum, iv, 34 mg/kg, actual half-life of the encapsulated tenofovir in the blood, inferred, encapsulated tenofovir only 20% of injected
QUANTITY_MEASURED: half-life

# input compound: C[C@H](Cn1cnc2c(N)ncnc21)OCP(=O)(O)O ; wanted: its half-life
> 20 min

====

- EXPERIMENT: Tenofovir concentration in brain after i.v. tenofovir-loaded vesicles (HPLC-UV of brain homogenate)
- Assay type: in vivo, mice
- CONDITION_CONTEXT: mouse, brain, 7.5 mg/kg; mice, encapsulated tenofovir in vesicles, 30 min after IV injection; read-out: amount of tenofovir in brain
- Text: Protein precipitation was accomplished by adding trichloroacetic acid (TCA) at a final concentration of 3.75%, providing a clear supernatant by centrifugation. This supernatant was neutralized by 1% sodium hydroxide solution and the neutralized extract was examined by HPLC with a UV detector, using an isocratic method with 10% aceto-nitrile and 90% buffer of triethyl amine in water adjusted to pH 5.4 with concentrated phosphoric acid. […]
QUANTITY_MEASURED: concentration at 30 min (ng/g)
Answers are plain numbers, in ng/g.

# input molecule: C[C@H](Cn1cnc2c(N)ncnc21)OCP(=O)(O)O ; wanted: its concentration at 30 min
2200

====

- EXPERIMENT: Pharmacokinetic studies, first set (LC-MS, blood and brain)
- CONDITION_CONTEXT: mouse, brain, iv, 34 mg/kg, apparent half-life of tenofovir in the brain, mice pretreated with pyrido; tenofovir encapsulated in GLH-19 + GLH-20 vesicles, i.v.
QUANTITY_MEASURED: half-life

# input molecule: C[C@H](Cn1cnc2c(N)ncnc21)OCP(=O)(O)O ; wanted: its half-life
~40 min

====

- EXPERIMENT: Pharmacokinetic studies, second set (LC-MS, brain)
- Format: in vivo
- CONDITION_CONTEXT: mouse, brain, intravenous; 7.5 mg/kg encapsulated in optimized V-Smart vesicles, pyrido pretreated mice; 60 min after the injection; read-out: concentration of tenofovir in the brain
QUANTITY_MEASURED: concentration at 60 min

# input molecule: C[C@H](Cn1cnc2c(N)ncnc21)OCP(=O)(O)O [tenofovir] ; wanted: its concentration at 60 min
~1000 ng/mL

====

- EXPERIMENT: Pharmacokinetic studies, first set (LC-MS, blood and brain)
- CONDITION_CONTEXT: mouse, serum, iv, 34 mg/kg, half-life of tenofovir in the blood (apparent), mice i.v., total tenofovir 34 mg/kg of which 6.8 mg/kg encapsulated; reflects free and encapsulated tenofovir
QUANTITY_MEASURED: half-life

# input molecule: C[C@H](Cn1cnc2c(N)ncnc21)OCP(=O)(O)O ; wanted: its half-life
~20 min

Data origin, for the record: patent US11304964B2
